run parameters: 298.15 K; 101 kPa; Liquid
± gives the expanded uncertainty stated by the source.
observable: mass density

Recorded results for 3 molecules are shown here.
> print(dat)
    item.smiles    observable               result
1    CCc1ccccc1  mass density  862.26 ± 0.46 kg/m3
2      c1ccccc1  mass density  873.62 ± 0.42 kg/m3
3  CCCCc1ccccc1  mass density  856.23 ± 0.48 kg/m3

Here is another molecule to look at.
Prompt line: Quick one: mass density for Cc1ccccc1 ?
Response line: 862.25 ± 0.44 kg/m3

----------
run parameters: 328.15 K; 101 kPa; Liquid
Quick list: mass density per entry.
Write the value in kg/m3 as a bare number.

Prompt line: Quick one: mass density for c1ccccc1 ?
Response line: 841.52

Prompt line: Now try CCc1ccccc1 .
Response line: 835.86

Prompt line: Now try CCCCc1ccccc1 .
Response line: 832.29

Prompt line: Now try Cc1ccccc1 .
Response line: 834.25
